- Run Description: self-splicing fitness, log relative to wild type (ln ratio); higher = more splicing; Tetrahymena group I intron in knt gene, E. coli kanamycin selection, DiMSum; sequences stand for … in CUCUCU…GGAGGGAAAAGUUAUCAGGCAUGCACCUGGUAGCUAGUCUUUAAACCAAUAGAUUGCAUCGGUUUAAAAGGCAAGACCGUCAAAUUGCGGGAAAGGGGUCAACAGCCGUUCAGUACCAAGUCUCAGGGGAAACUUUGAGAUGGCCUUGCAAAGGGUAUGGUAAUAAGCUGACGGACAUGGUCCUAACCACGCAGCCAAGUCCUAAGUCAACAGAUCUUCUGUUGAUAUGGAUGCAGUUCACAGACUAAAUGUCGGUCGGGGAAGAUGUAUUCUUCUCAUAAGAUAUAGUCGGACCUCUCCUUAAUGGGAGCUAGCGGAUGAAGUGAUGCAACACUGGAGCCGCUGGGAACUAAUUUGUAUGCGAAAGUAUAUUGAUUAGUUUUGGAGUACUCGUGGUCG;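 further: selection with 25 µg/mL kanamycin versus none on LB agar overnight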
- Conditions Used: 37 °C
Property Measured: self-splicing fitness (ln)
// no unit, no text: just the number

// solved cases for self-splicing fitness (ln) follow
AGUCAGCAAUAUUACGUGAC -2.86
CUGCAGCAAUAUUACGGACA -1.44
CUCGAGCAAUAUUACGUAGU -2.18

Looking for the measured self-splicing fitness (ln) of GCCCAGCAAUAUUACGUCAA , can you help?
-1.68

What about UGGAAGCAAUAUUACGAGUG ?
-0.586

What about GCCGAGCAAUAUUACGGCUC ?
-1.49

What about GGACAGCAAUAUUACGGACA ?
-0.307

What about CCGAAGCAAUAUUACGCGUU ?
-2.4

* * *

- Run Description: self-splicing fitness, log relative to wild type (ln ratio); higher = more splicing; Tetrahymena group I intron in knt gene, E. coli kanamycin selection, DiMSum; sequences stand for … in CUCUCU…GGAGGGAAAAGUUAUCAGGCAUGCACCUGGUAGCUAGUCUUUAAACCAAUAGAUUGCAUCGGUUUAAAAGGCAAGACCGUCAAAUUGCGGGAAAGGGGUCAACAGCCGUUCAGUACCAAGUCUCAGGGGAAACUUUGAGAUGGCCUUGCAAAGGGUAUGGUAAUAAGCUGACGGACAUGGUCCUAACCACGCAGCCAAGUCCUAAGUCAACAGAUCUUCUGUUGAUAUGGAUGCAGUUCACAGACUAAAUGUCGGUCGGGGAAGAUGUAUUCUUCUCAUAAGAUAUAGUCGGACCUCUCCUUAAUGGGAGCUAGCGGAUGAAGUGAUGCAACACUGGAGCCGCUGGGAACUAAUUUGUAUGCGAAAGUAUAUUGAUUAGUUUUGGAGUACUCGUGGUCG
- Conditions Used: 37 °C
Catalogue of sequences with associated self-splicing fitness (ln)

// solved cases for self-splicing fitness (ln) follow
GCAAAGCAAUAUUACGUCAA -2.02
CGCUAGCAAUAUUACGGUCG -2.03
ACUGAGCAAUAUUACGUGAG -1.36
GAUAAGCAAUAUUACGGCAA -0.998
UCCUAGCAAUAUUACGAAGA 0.123
UACGAGCAAUAUUACGGACG -1.24

Looking for the measured self-splicing fitness (ln) of GCUUAGCAAUAUUACGUCAC , can you help?
-1.53

What about AGCUAGCAAUAUUACGGGGC ?
-2.5

What about CGUUAGCAAUAUUACGUCCA ?
-1.13

What about GGGUAGCAAUAUUACGCAGC ?
-0.837

What about AGAGAGCAAUAUUACGGCAU ?
-1.36

What about CGCGAGCAAUAUUACGUCAU ?
-1.97
